study_system: hVEGF(8-109) (Homo sapiens)
Construct: hVEGF(8-109) or BSA were coated on 384-well MAXISORP™ immunoplates
Sequence (P15692 214-315): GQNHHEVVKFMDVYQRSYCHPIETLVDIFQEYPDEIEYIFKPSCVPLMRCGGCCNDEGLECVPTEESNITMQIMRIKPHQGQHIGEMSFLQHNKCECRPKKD
procedure_details: Spot phage ELISA
Format: binding
test_settings: loop 2 variants based on VEGF_CKP9.63 framework, Table 27
property_measured: ELISA
Give the figure only, with no unit attached.

Below: 5 sequences and their reported ELISA.
- sequence_data: "GCDVMQPYWGCGVDLSCLAGCVCHWYNSCG [VEGF_CKP9.63.3]"
  property_measured: "ELISA"
  numeric_value: 1.7
- sequence_data: "GCDVMQPYWGCGNDVSCLAGCVCHWYNSCG [VEGF_CKP9.63.24]"
  property_measured: "ELISA"
  numeric_value: 1.6
- sequence_data: "GCDVMQPYWGCGNSFECLAGCVCHWYNSCG [VEGF_CKP9.63.47]"
  property_measured: "ELISA"
  numeric_value: 1.7
- sequence_data: "GCDVMQPYWGCAGDFECLAGCVCHWYNSCG [VEGF_CKP9.63.42]"
  property_measured: "ELISA"
  numeric_value: 1.7
- sequence_data: "GCDVMQPYWGCDGDFDCLAGCVCHWYNSCG [VEGF_CKP9.63.39]"
  property_measured: "ELISA"
  numeric_value: 1.6

--- query ---
Requested field: ELISA. Item: GCDVMQPYWGCDLNYECLAGCVCHWYNSCG [VEGF_CKP9.63.87]
0.9

###

study_system: hVEGF(8-109) (Homo sapiens)
Construct: hVEGF(8-109) or BSA were coated on 384-well MAXISORP™ immunoplates
Sequence (P15692 214-315): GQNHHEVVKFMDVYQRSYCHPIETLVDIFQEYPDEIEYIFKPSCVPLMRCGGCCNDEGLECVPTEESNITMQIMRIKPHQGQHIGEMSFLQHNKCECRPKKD
procedure_details: Spot phage ELISA
Assay type: binding
test_settings: Table 27
The following sequences are listed with their measured S/N (signal to noise ratio as compared to BSA control) values.

Below: 8 sequences and their reported S/N (signal to noise ratio as compared to BSA control).
- sequence_data: "GCDVMQPYWGCDGDFDCLAGCVCHWYNSCG [VEGF_CKP9.63.39]"
  result: 18.9
- sequence_data: "GCDVMQPYWGCGENLACLAGCVCHWYNSCG [VEGF_CKP9.63.54]"
  result: 19.9
- sequence_data: "GCDVMQPYWGCGRDLQCLAGCVCHWYNSCG [VEGF_CKP9.63.2]"
  result: 15.0
- sequence_data: "GCDVMQPYWGCDLNYECLAGCVCHWYNSCG [VEGF_CKP9.63.87]"
  result: 8.6
- sequence_data: "GCDVMQPYWGCGQDLTCLAGCVCHWYNSCG [VEGF_CKP9.63.50]"
  result: 12.7
- sequence_data: "GCDVMQPYWGCAGDFECLAGCVCHWYNSCG [VEGF_CKP9.63.42]"
  result: 23.1
- sequence_data: "GCDVMQPYWGCAGDELCLAGCVCHWYNSCG [VEGF_CKP9.63.30]"
  result: 26.0
- sequence_data: "GCDVMQPYWGCGDDLECLAGCVCHWYNSCG [VEGF_CKP9.63.14]"
  result: 21.3

Param readout= S/N (signal to noise ratio as compared to BSA control); system= hVEGF(8-109) (Homo sapiens); entry= GCDVMQPYWGCDGDYQCLAGCVCHWYNSCG [VEGF_CKP9.63.18] ; returns value.
17.3

Now consider GCDVMQPYWGCGNSFECLAGCVCHWYNSCG [VEGF_CKP9.63.47] .
20.7

###

study_system: hVEGF(8-109) (Homo sapiens)
Construct: hVEGF(8-109) or BSA were coated on 384-well MAXISORP™ immunoplates
Sequence (P15692 214-315): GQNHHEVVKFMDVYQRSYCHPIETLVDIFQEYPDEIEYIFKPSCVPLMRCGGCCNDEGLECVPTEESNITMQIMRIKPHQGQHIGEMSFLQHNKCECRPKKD
procedure_details: Spot phage ELISA
Type: binding
test_settings: loop 2 variants based on VEGF_CKP9.63 framework, Table 27
Flag rule - ELISA less than 2 flags rule met; the remaining entries get rule not met.

ELISA strictly < 2 for this sequence? GCDVMQPYWGCGENLACLAGCVCHWYNSCG [VEGF_CKP9.63.54]
rule met

Now consider GCDVMQPYWGCGADLSCLAGCVCHWYNSCG [VEGF_CKP9.63.62] .
rule met

Now consider GCDVMQPYWGCGMDIECLAGCVCHWYNSCG [VEGF_CKP9.63.16] .
rule not met

Now consider GCDVMQPYWGCGQDYNCLAGCVCHWYNSCG [VEGF_CKP9.63.56] .
rule met

Now consider GCDVMQPYWGCGDDLECLAGCVCHWYNSCG [VEGF_CKP9.63.14] .
rule met

###

study_system: hVEGF(8-109) (Homo sapiens)
Construct: hVEGF(8-109) or BSA were coated on 384-well MAXISORP™ immunoplates
Sequence (P15692 214-315): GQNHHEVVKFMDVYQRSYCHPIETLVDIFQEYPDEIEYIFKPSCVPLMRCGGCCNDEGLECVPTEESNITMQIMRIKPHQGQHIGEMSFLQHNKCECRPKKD
procedure_details: Spot phage ELISA
Assay type: binding
test_settings: Table 27
Flag rule - S/N (signal to noise ratio as compared to BSA control) less than 20 flags True; the remaining entries get False.

Illustrative cases are given below, each with its answer.
- sequence_data: "GCDVMQPYWGCGQDYNCLAGCVCHWYNSCG [VEGF_CKP9.63.56]"
  study_system: "hVEGF(8-109) (Homo sapiens)"
  classification: "True"
- sequence_data: "GCDVMQPYWGCGMDIECLAGCVCHWYNSCG [VEGF_CKP9.63.16]"
  study_system: "hVEGF(8-109) (Homo sapiens)"
  classification: "True"
- sequence_data: "GCDVMQPYWGCGFDMDCLAGCVCHWYNSCG [VEGF_CKP9.63.65]"
  study_system: "hVEGF(8-109) (Homo sapiens)"
  classification: "False"
- sequence_data: "GCDVMQPYWGCGADLSCLAGCVCHWYNSCG [VEGF_CKP9.63.62]"
  study_system: "hVEGF(8-109) (Homo sapiens)"
  classification: "False"
- sequence_data: "GCDVMQPYWGCGVDLSCLAGCVCHWYNSCG [VEGF_CKP9.63.3]"
  study_system: "hVEGF(8-109) (Homo sapiens)"
  classification: "False"

S/N (signal to noise ratio as compared to BSA control) strictly < 20 for this sequence? GCDVMQPYWGCGVDMTCLAGCVCHWYNSCG [VEGF_CKP9.63.15]
False

Now consider GCDVMQPYWGCGLDEECLAGCVCHWYNSCG [VEGF_CKP9.63.37] .
True

###

study_system: hVEGF(8-109) (Homo sapiens)
Construct: hVEGF(8-109) or BSA were coated on 384-well MAXISORP™ immunoplates
Sequence (P15692 214-315): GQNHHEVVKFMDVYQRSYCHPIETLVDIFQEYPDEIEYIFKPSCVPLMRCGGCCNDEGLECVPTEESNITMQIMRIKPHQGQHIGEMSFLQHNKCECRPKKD
procedure_details: Spot phage ELISA
Format: binding
test_settings: loop 2 variants based on VEGF_CKP9.63 framework, Table 27
The following sequences are listed with their measured ELISA values.
Give the figure only, with no unit attached.

Below: 3 sequences and their reported ELISA.
- sequence_data: "GCDVMQPYWGCGVDMTCLAGCVCHWYNSCG [VEGF_CKP9.63.15]"
  ELISA: 1.5
- sequence_data: "GCDVMQPYWGCGQDLTCLAGCVCHWYNSCG [VEGF_CKP9.63.50]"
  ELISA: 0.9
- sequence_data: "GCDVMQPYWGCGLDEECLAGCVCHWYNSCG [VEGF_CKP9.63.37]"
  ELISA: 0.6

Requested field: ELISA. Item: GCDVMQPYWGCDGDYQCLAGCVCHWYNSCG [VEGF_CKP9.63.18]
2.3

###

study_system: hVEGF(8-109) (Homo sapiens, UniProt P15692)
Construct: hVEGF(8-109) or BSA were coated on 384-well MAXISORP™ immunoplates
Sequence (P15692 214-315): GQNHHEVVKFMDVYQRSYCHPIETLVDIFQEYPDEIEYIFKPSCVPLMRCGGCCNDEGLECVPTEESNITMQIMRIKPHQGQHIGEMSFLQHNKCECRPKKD
procedure_details: Spot phage ELISA
Type: binding
test_settings: loop 2 variants based on VEGF_CKP9.63 framework, Table 27
The following sequences are listed with their measured ELISA values.

Below: 2 sequences and their reported ELISA.
- sequence_data: "GCDVMQPYWGCGRDLQCLAGCVCHWYNSCG [VEGF_CKP9.63.2]"
  study_system: "hVEGF(8-109) (Homo sapiens, UniProt P15692)"
  property_measured: "ELISA"
  result: 2.0
- sequence_data: "GCDVMQPYWGCGFDMDCLAGCVCHWYNSCG [VEGF_CKP9.63.65]"
  study_system: "hVEGF(8-109) (Homo sapiens, UniProt P15692)"
  property_measured: "ELISA"
  result: 2.0

--- query ---
Requested field: ELISA. Item: GCDVMQPYWGCAGDELCLAGCVCHWYNSCG [VEGF_CKP9.63.30]
2.0

Source listed as patent US11155586B2.
